Reference source for all entries: patent US20180186853A1

In vitro Activity (Relative Activity of SEQ ID NO: 1, %), from cAMP EC50 overview
molecular target: human glucagon receptor (human, UniProt P47871 26-477); test: cell-based or functional assay
Sequence (P47871 26-477): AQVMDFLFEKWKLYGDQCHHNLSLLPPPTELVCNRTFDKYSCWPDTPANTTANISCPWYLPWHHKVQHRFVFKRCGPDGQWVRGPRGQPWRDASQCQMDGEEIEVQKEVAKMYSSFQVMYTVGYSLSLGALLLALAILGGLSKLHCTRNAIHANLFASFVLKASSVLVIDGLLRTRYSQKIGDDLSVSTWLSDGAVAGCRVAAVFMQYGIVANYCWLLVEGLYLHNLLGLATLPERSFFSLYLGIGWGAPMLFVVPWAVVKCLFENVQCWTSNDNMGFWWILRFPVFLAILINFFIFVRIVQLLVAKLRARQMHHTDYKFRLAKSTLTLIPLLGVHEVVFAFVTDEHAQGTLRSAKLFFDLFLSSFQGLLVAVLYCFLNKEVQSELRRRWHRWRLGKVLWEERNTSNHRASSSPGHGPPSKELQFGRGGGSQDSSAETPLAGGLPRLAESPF
Positions of bridges follow the written chain, without caps; N, C: chain ends. Non-standard residues stand in square brackets, D forms with d. No end group written: not given here. Aib = CC(C)(N)C(=O)O
Give just the number in %; leave the unit off.

What value of In vitro Activity (Relative Activity of SEQ ID NO: 1, %), from cAMP EC50 has been recorded for this entry: Y[Aib]QGTFCSDYSKYLDERRAKDFVQWLMNT (bridge 16-20; also: ring between positions 16 and 20, kind not given here) [glucagon derivative of SEQ ID NO: 41]
45.2

One more binder: Y[Aib]QGTFTSDYSKYCDERRAKEFVQWLMNT (bridge 16-20; also: ring between positions 16 and 20, kind not given here) [glucagon derivative of SEQ ID NO: 35]
17.7

One more binder: W[Aib]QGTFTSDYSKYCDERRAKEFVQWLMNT (bridge 16-20; also: ring between positions 16 and 20, kind not given here) [glucagon derivative of SEQ ID NO: 34]
0.2

One more binder: W[Aib]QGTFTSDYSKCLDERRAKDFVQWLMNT (bridge 16-20; also: ring between positions 16 and 20, kind not given here) [glucagon derivative of SEQ ID NO: 30]
0.3
